system: CHO-K1; assay: benchmark concentration for 30% increase in micronucleus frequency (BMC30); higher = less potent clastogen; settings: S9 metabolic activation: with S9
Rule: benchmark concentration under 20 µM gives condition not met, otherwise condition met.

Sample answers from the record:
Cc1cc(O)ccc1Cl; condition not met
c1ccc2c(c1)Nc1ccccc1S2; condition not met
O=C(CCl)c1ccccc1; condition met
Nc1cccc2c(N)cccc12; condition not met
ClC1=C(Cl)C2(Cl)C3C(Cl)C=CC3C1(Cl)C2(Cl)Cl (stereo unspecified); condition not met
Oc1ccc(O)cc1 [Hydroquinone]; condition met

Now look at this one.
Q: Say whether C=CCOC(=O)c1ccccc1C(=O)OCC=C [Diallyl phthalate] shows benchmark concentration of 20 µM or more.
A: condition met

----------
system: CHO-K1; test: benchmark concentration for 30% increase in micronucleus frequency (BMC30); higher = less potent clastogen; details: S9 metabolic activation: with S9
For each of the compounds below, state its benchmark concentration.
One number for each entry, in µM.

ClC1=C(Cl)C2(Cl)C3C4OC4C(Cl)C3C1(Cl)C2(Cl)Cl (configuration not stated) [Heptachlor epoxide]; 45

Can you give me benchmark concentration for all of these, one by one?
1. CC(C)(C)c1cc(O)ccc1O [tert-Butylhydroquinone]
2. Oc1cc(Cl)ccc1Oc1ccc(Cl)cc1Cl
3. CCOc1ccc2c(c1)C(C)=CC(C)(C)N2

A:
1. 22
2. 40
3. 86

Your task in this section: give benchmark concentration for each listed record.
1. c1ccc2c(c1)oc1ccccc12
2. O=C(OC[C@H]1O[C@@H](OC(=O)c2cc(O)c(O)c(OC(=O)c3cc(O)c(O)c(O)c3)c2)[C@H](OC(=O)c2cc(O)c(O)c(OC(=O)c3cc(O)c(O)c(O)c3)c2)[C@@H](OC(=O)c2cc(O)c(O)c(OC(=O)c3cc(O)c(O)c(O)c3)c2)[C@@H]1OC(=O)c1cc(O)c(O)c(OC(=O)c2cc(O)c(O)c(O)c2)c1)c1cc(O)c(O)c(OC(=O)c2cc(O)c(O)c(O)c2)c1
3. O=c1c(-c2ccc(O)cc2)coc2cc(O)ccc12

A:
[33, 0.9, 14]

----------
system: CHO-K1; experiment: benchmark concentration for 30% increase in micronucleus frequency (BMC30); higher = less potent clastogen; settings: S9 metabolic activation: with S9
TEST READOUT: benchmark concentration (µM)
One number for each entry, in µM.

Nc1nc(=O)c2nc(CNc3ccc(C(=O)N[C@@H](CCC(=O)O)C(=O)O)cc3)cnc2[nH]1 [Folic acid]; 57
O=C(O)C(F)(F)C(F)(F)C(F)(F)C(F)(F)C(F)(F)C(F)(F)C(F)(F)C(F)(F)C(F)(F)F [PFDA]; 73

Q: Sample Oc1cc(Cl)c(Cl)cc1Cl [2,4,5-Trichlorophenol] — what was its benchmark concentration?
A: 6.5

----------
system: CHO-K1; experiment: benchmark concentration for 30% increase in micronucleus frequency (BMC30); higher = less potent clastogen; details: S9 metabolic activation: with S9
TEST READOUT: benchmark concentration (µM)
Answers are plain numbers, in µM.

Some solved cases for reference:
CCCCC=O; 60
CCC(C)(C)c1ccc(O)cc1; 81

Okay, here is my list. What is benchmark concentration for each of these?
1. Oc1cccc2cccnc12 [8-Hydroxyquinoline]
2. COCCOCCOC
3. CC(C)(OOC(C)(C)c1ccccc1)c1ccccc1 [Dicumyl peroxide]
4. CCC(C)c1ccccc1O (centres undefined)
5. NS(=O)(=O)c1cc2c(cc1Cl)NCNS2(=O)=O [Hydrochlorothiazide]
6. c1ccc(NNc2ccccc2)cc1 [1,2-Diphenylhydrazine]
7. Cc1ccc2ncccc2c1

A:
1. 16
2. 72
3. 88
4. 23
5. 29
6. 22
7. 22

----------
test system: CHO-K1; experiment: benchmark concentration for 30% increase in micronucleus frequency (BMC30); higher = less potent clastogen; conditions: S9 metabolic activation: with S9
Where benchmark concentration equals or exceeds 30 µM, the correct label is Y; where it does not, the label is N.

CCSC(=O)N1CCCCCC1 [Molinate]; Y
O=c1[nH]sc2ccccc12 [1,2-Benzisothiazolin-3-one]; Y
NNC(=O)c1ccncc1 [Isoniazid]; N

Q: Dear colleague, could you confirm whether c1cc2ccc3cccc4ccc(c1)c2c34 [Pyrene] has benchmark concentration at or above 30 µM?
A: Y

Q: Next record, please: O=C1C2(Cl)C3(Cl)C4(Cl)C(Cl)(Cl)C5(Cl)C3(Cl)C1(Cl)C5(Cl)C24Cl (stereo not given) [Kepone]
A: Y
